- Test system: Hs578T complex spheroid growth, percent test/control
- MEASUREMENT PROTOCOL: Anticancer human tumor Hs578T cell line growth inhibition [AhR]; active = viability on the fitted dose curve at most 10% of control; inactive = the rest;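 also: luminescent viability signal as a proxy for spheroid growth; spheroids exposed to agents for one week after three days of growth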
- APPLIED CONDITIONS: second compound 1 µM; first compound 0.03 µM
Labels: yes (active), no (inactive)

[[record]]
molecule = "O=C(C=Cn1cnc(-c2cc(C(F)(F)F)cc(C(F)(F)F)c2)n1)NNc1cnccn1 + Cc1cncc(-c2nc(NCCc3c[nH]c4ccccc34)c3ncn(C(C)C)c3n2)c1"
class = "no"

[[record]]
molecule = "CC(C)CC(NC(=O)C(Cc1ccccc1)NC(=O)c1cnccn1)B(O)O (stereo not drawn) + Cc1ccccc1N=Nc1ccc(NC(=O)c2ccnn2C)c(C)c1"
class = "yes"

[[record]]
molecule = "O=C(C=Cn1cnc(-c2cc(C(F)(F)F)cc(C(F)(F)F)c2)n1)NNc1cnccn1 + CC(CO)NC(=O)c1cc(-c2ccc(Cl)cc2)nn(-c2cnn(C)c2)c1=O"
class = "no"

